The measured values listed here are drawn from the NIST ThermoML archive (doi:10.1021/je0302304).

Exercise: for every item that follows, state its recorded mass density.
- setup_conditions: 288.15 K; 101.32 kPa; Liquid
Numbers only, in kg/m3.

Example entries begin here.
[[record]]
chemical_smiles = "COCCOC"
quantitative_result = 872.4

[[record]]
chemical_smiles = "CCO"
quantitative_result = 793.6

[[record]]
chemical_smiles = "COCCOCCOCCOCCOC"
quantitative_result = 1016

[[record]]
chemical_smiles = "COCCOCCOC"
quantitative_result = 948.6


Kindly review the next compound as well.
Lookup: Given the compound `COCCOCCOCCOC` , what is its reported mass density?
Found: 989.7

====

- measurement_description: xn = mol fraction of the nth substance listed
- setup_conditions: 298.15 K; 101.32 kPa; Liquid; x1 = 0.0125
Could you please report measured mass density for the items listed next?
Give bare numbers, in kg/m3.

Some compounds with known mass density results, for comparison:
[[record]]
compound = "COCCOCCOC [2,5,8-trioxanonane] + CCO"
quantitative_result = 790.1

[[record]]
compound = "COCCOCCOCCOCCOC [2,5,8,11,14-pentaoxapentadecane] + CCO"
quantitative_result = 796.3

[[record]]
compound = "COCCOCCOCCOC [2,5,8,11-tetraoxadodecane] + CCO"
quantitative_result = 793.2


Then this compound:
Lookup: Could you share which mass density value was measured for COCCOC [1,2-dimethoxyethane] + CCO ?
Found: 787.1

====

For each record, write down the corresponding mass density.
- measurement_description: xn = mol fraction of the nth substance listed
- setup_conditions: 298.15 K; 101.32 kPa; Liquid; x1 = 0.15
One number for each entry, in kg/m3.

Reference set, count: 3
[[record]]
compound = "COCCOCCOCCOCCOC [2,5,8,11,14-pentaoxapentadecane] + CCO"
quantitative_result = 878.9

[[record]]
compound = "COCCOCCOC [2,5,8-trioxanonane] + CCO"
quantitative_result = 833.6

[[record]]
compound = "COCCOC [1,2-dimethoxyethane] + CCO"
quantitative_result = 805


Lookup: Name the recorded mass density for COCCOCCOCCOC [2,5,8,11-tetraoxadodecane] + CCO .
Found: 857.3

====

- measurement_description: refractive index (Na D-line) (dimensionless); xn = mol fraction of the nth substance listed
- setup_conditions: 308.15 K; 101.32 kPa; Liquid; Standard Abbe refractometry; x1 = 0.3
Record form. Attribute: refractive index. Fill in for each entry.
Numbers only.

[[record]]
compound = "COCCOCCOCCOCCOC [2,5,8,11,14-pentaoxapentadecane] + CCO"
outcome_measure = "refractive index"
quantitative_result = 1.4013


Each compound below has a reported value. Please supply its refractive index.
1. COCCOCCOCCOC [2,5,8,11-tetraoxadodecane] + CCO
2. COCCOCCOC [2,5,8-trioxanonane] + CCO
3. COCCOC [1,2-dimethoxyethane] + CCO

Found:
1. 1.3917
2. 1.3797
3. 1.3631

====

- measurement_description: xn = mol fraction of the nth substance listed
- setup_conditions: 298.15 K; 101.32 kPa; Liquid; x1 = 0.4
Please respond with reported mass density for every item in the list.
Give bare numbers, in kg/m3.

Worked cases, answers included:
[[record]]
molecule = "COCCOCCOCCOCCOC [2,5,8,11,14-pentaoxapentadecane] + CCO"
outcome_measure = "mass density"
unit_text = "kg/m3"
quantitative_result = 948.3

[[record]]
molecule = "COCCOC [1,2-dimethoxyethane] + CCO"
outcome_measure = "mass density"
unit_text = "kg/m3"
quantitative_result = 829

[[record]]
molecule = "COCCOCCOC [2,5,8-trioxanonane] + CCO"
outcome_measure = "mass density"
unit_text = "kg/m3"
quantitative_result = 882.9


Lookup: Looking for the measured mass density of COCCOCCOCCOC [2,5,8,11-tetraoxadodecane] + CCO , can you help?
Found: 919.8

====

- measurement_description: xn = mol fraction of the nth substance listed
- setup_conditions: 318.15 K; 101.32 kPa; Liquid; x1 = 0.0125
± gives the expanded uncertainty stated by the source.
Field: mass density. Provide a value for each of the molecules that follow.
Report as: number unit

// worked examples, mass density included
[[record]]
molecule = "COCCOC [1,2-dimethoxyethane] + CCO"
result = "769.6 ± 0.5 kg/m3"

[[record]]
molecule = "COCCOCCOCCOCCOC [2,5,8,11,14-pentaoxapentadecane] + CCO"
result = "778.7 ± 0.5 kg/m3"

[[record]]
molecule = "COCCOCCOCCOC [2,5,8,11-tetraoxadodecane] + CCO"
result = "775.5 ± 0.5 kg/m3"


// next entry
Lookup: What value of mass density has been reported for the following molecule? COCCOCCOC [2,5,8-trioxanonane] + CCO
Found: 772.6 ± 0.5 kg/m3

====

- measurement_description: xn = mol fraction of the nth substance listed
- setup_conditions: 288.15 K; 101.32 kPa; Liquid; x1 = 0.1
What mass density was measured for each of the following?
Numbers only, in kg/m3.

As a guide, the following entries are already answered.
[[record]]
molecule = "COCCOCCOC [2,5,8-trioxanonane] + CCO"
quantitative_result = 828.7

[[record]]
molecule = "COCCOC [1,2-dimethoxyethane] + CCO"
quantitative_result = 807.9


Please supply mass density for each of the following items, keeping them in order.
1. COCCOCCOCCOCCOC [2,5,8,11,14-pentaoxapentadecane] + CCO
2. COCCOCCOCCOC [2,5,8,11-tetraoxadodecane] + CCO

Found:
864.1
846.7

====

- measurement_description: xn = mol fraction of the nth substance listed
- setup_conditions: 288.15 K; 101.32 kPa; Liquid; x1 = 0.25
Would you mind telling me the reported mass density of each entry?
One number for each entry, in kg/m3.

Solved entries (count: 3):
[[record]]
compound = "COCCOCCOC [2,5,8-trioxanonane] + CCO"
outcome_measure = "mass density"
quantitative_result = 865.9

[[record]]
compound = "COCCOCCOCCOCCOC [2,5,8,11,14-pentaoxapentadecane] + CCO"
outcome_measure = "mass density"
quantitative_result = 923.3

[[record]]
compound = "COCCOCCOCCOC [2,5,8,11-tetraoxadodecane] + CCO"
outcome_measure = "mass density"
quantitative_result = 896.9


Now for the compound whose mass density we want.
Lookup: Entry under review: COCCOC [1,2-dimethoxyethane] + CCO . Reported mass density?
Found: 825.2

====

- measurement_description: refractive index (Na D-line) (dimensionless); xn = mol fraction of the nth substance listed
- setup_conditions: 288.15 K; 101.32 kPa; Liquid; Standard Abbe refractometry; x1 = 0.3
Hi there, I'd appreciate the recorded refractive index for every entry that follows.
Give bare numbers.

[[record]]
molecule = "COCCOCCOC [2,5,8-trioxanonane] + CCO"
outcome_measure = "refractive index"
quantitative_result = 1.3881

[[record]]
molecule = "COCCOCCOCCOC [2,5,8,11-tetraoxadodecane] + CCO"
outcome_measure = "refractive index"
quantitative_result = 1.3998

[[record]]
molecule = "COCCOC [1,2-dimethoxyethane] + CCO"
outcome_measure = "refractive index"
quantitative_result = 1.3721


Now examine the next entry.
Lookup: Look at this molecule and give its reported refractive index. COCCOCCOCCOCCOC [2,5,8,11,14-pentaoxapentadecane] + CCO
Found: 1.4093

====

- measurement_description: xn = mol fraction of the nth substance listed
- setup_conditions: 318.15 K; 101.32 kPa; Liquid; x1 = 0.0205
outcome_measure: mass density (kg/m3)
One number for each entry, in kg/m3.

Give one value of mass density per listed compound.
1. COCCOC [1,2-dimethoxyethane] + CCO
2. COCCOCCOC [2,5,8-trioxanonane] + CCO
3. COCCOCCOCCOCCOC [2,5,8,11,14-pentaoxapentadecane] + CCO

Found:
1: 770.7; 2: 775.6; 3: 785.3

Lookup: # get_value(readout='mass density', item= COCCOCCOCCOC [2,5,8,11-tetraoxadodecane] + CCO )
Found: 780.3

====

- measurement_description: xn = mol fraction of the nth substance listed
- setup_conditions: 308.15 K; 101.32 kPa; Liquid; x1 = 0.4
outcome_measure: mass density (kg/m3)
Answers are plain numbers, in kg/m3.

Solved entries:
[[record]]
molecule = "COCCOCCOCCOC [2,5,8,11-tetraoxadodecane] + CCO"
quantitative_result = 910.5

[[record]]
molecule = "COCCOCCOCCOCCOC [2,5,8,11,14-pentaoxapentadecane] + CCO"
quantitative_result = 939.2

[[record]]
molecule = "COCCOCCOC [2,5,8-trioxanonane] + CCO"
quantitative_result = 873.2


Here's the next entry for you.
Lookup: Find the recorded mass density belonging to COCCOC [1,2-dimethoxyethane] + CCO and report it.
Found: 818.9

====

- measurement_description: xn = mol fraction of the nth substance listed
- setup_conditions: 308.15 K; 101.32 kPa; Liquid; x1 = 0.0205
outcome_measure: mass density (kg/m3)
One number for each entry, in kg/m3.

Solved entries:
[[record]]
compound = "COCCOC [1,2-dimethoxyethane] + CCO"
unit_text = "kg/m3"
quantitative_result = 779.6

[[record]]
compound = "COCCOCCOCCOC [2,5,8,11-tetraoxadodecane] + CCO"
unit_text = "kg/m3"
quantitative_result = 789.2

[[record]]
compound = "COCCOCCOCCOCCOC [2,5,8,11,14-pentaoxapentadecane] + CCO"
unit_text = "kg/m3"
quantitative_result = 794.2


Lookup: Which value of mass density has been reported for COCCOCCOC [2,5,8-trioxanonane] + CCO in the records?
Found: 784.4
